# Target under test: M. tb EgtD (Mycobacterium tuberculosis)
# Construct: thioredoxin (N, cleaved yes); polyhistidine (N, cleaved yes); made in house; host or cells: E. coli (T7 cells), pET32-derived vector
# Assay procedure: biochemical
Reported endpoint: EC50 (µM)
One number for each entry, in µM.

Known EC50 results, listed for orientation:
| Molecule | EC50 / µM |
| --- | --- |
| CCOc1ccccc1CN(CC)C(=O)[C@H](N)Cc1c[nH]cn1 [HD4] | 25 |
| Cc1cccc(C(C(=O)NCCc2c[nH]cn2)N(C)C)c1 (stereo not shown) [HD10] | 32 |
| O=C(O)CNc1cccc(C(=O)NCCc2c[nH]cn2)c1 [HD1] | 89 |

Could you now look at the following molecule, please?
Problem: Respond only with EC50 recorded for O=C(O)C(Cc1cnc[nH]1)NC(=S)NCc1ccccc1 (stereo not shown) [HD3]
Result: 47

====

Give measured pEC50 for each item. Keep answers brief.
# Target under test: M. tb EgtD (Mycobacterium tuberculosis, UniProt P9WN47)
# Construct: thioredoxin (N, cleaved yes); polyhistidine (N, cleaved yes)
# Sequence (P9WN47 whole entry): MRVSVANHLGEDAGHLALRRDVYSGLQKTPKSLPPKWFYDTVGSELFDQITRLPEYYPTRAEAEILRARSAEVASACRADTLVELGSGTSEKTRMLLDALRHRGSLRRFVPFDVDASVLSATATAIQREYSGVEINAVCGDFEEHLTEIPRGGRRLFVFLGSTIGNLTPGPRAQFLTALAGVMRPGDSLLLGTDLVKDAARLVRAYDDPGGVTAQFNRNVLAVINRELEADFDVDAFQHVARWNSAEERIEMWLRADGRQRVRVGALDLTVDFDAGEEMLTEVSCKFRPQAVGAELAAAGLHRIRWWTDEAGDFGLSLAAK
# Assay procedure: biochemical
One number for each entry, as −log10 of the molar value.

Known pEC50 results, listed for orientation:
| Compound | Target under test | Observed |
| --- | --- | --- |
| CN(C)CCN(Cc1cnc[nH]1)C(=O)CN(C)Cc1ccccc1 | M. tb EgtD (Mycobacterium tuberculosis, UniProt P9WN47) | 4.07 |
| CCOc1ccccc1OCCN(C)Cc1cnc[nH]1 | M. tb EgtD (Mycobacterium tuberculosis, UniProt P9WN47) | 4.44 |
| O=C(N[C@@H](Cc1c[nH]cn1)C(=O)O)C1CC=CC1 | M. tb EgtD (Mycobacterium tuberculosis, UniProt P9WN47) | 4.07 |
| Cc1ccc(C(C)C(=O)N(CCN(C)C)Cc2cnc[nH]2)cc1 (stereo not drawn) | M. tb EgtD (Mycobacterium tuberculosis, UniProt P9WN47) | 3.80 |
| CN(Cc1ccc(Oc2ccccc2)cc1)C(=O)[C@H](N)Cc1c[nH]cn1 | M. tb EgtD (Mycobacterium tuberculosis, UniProt P9WN47) | 4.52 |

Could you now look at the following compound, please?
Problem: Respond only with pEC50 recorded for O=C(O)C(Cc1cnc[nH]1)n1cccc1 (stereo not drawn)
Result: 4.48

These entries and their values trace back to paper PMC8593015.
